# pEC50 values compiled below
- System: ATH-8 cell line
- measurementNotes: Concentration required to inhibit the cytopathic effect of HIV-1 on ATH8 cells
- Format: functional, Human immunodeficiency virus 1
- testConditions: Homo sapiens, read-out: ED50 (the source's name)
Quick note: pEC50 values are minus log10 of concentrations in mol/L.

Below, 5 molecules whose answers are already recorded.
Nc1nc(Cl)c2ncn([C@H]3CC[C@@H](CO)O3)c2n1 | 5.26
OC[C@@H]1CC[C@H](n2cnc3c(F)ncnc32)O1 | 5.55
OCC1CCC(n2cnc3c(Br)ncnc32)O1 (stereo unspecified) | 5.11
OC[C@@H]1CC[C@H](n2cnc3c(Cl)ncnc32)O1 | 5.16
Cc1cn([C@H]2C[C@H](N=[N+]=[N-])[C@@H](CO)O2)c(=O)[nH]c1=O [ZIDOVUDINE] | 5.30

Which pEC50 value belongs to Nc1nc2c(ncn2[C@H]2CC[C@@H](CO)O2)c(=O)[nH]1 ? 5.46

Again, but for Nc1nc(F)c2ncn([C@H]3CC[C@@H](CO)O3)c2n1 5.62

Again, but for O=c1[nH]cnc2c1ncn2[C@H]1CC[C@@H](CO)O1 [DIDANOSINE] 5.25

Cited source: ChEMBL document CHEMBL1125691
